Parameter pEC50: see the listing below.
# systemTested: T1, recombinant human IL4Rα-his protein (in house made) (human, UniProt P24394 26-232, limits assumed)
# T1 construct: also called Human IL4Ra-his
# procedureText: capture ELISA: antibody captured on anti-IgG Fc plate, biotin human IL4Rα-his detected
Worth noting: pEC50 values are minus log10 of concentrations stated in mol/L.

Solved entries:
{"binder": "huB8G11F2B7G5E8-V14 (antibody, human IgG4 S228P, kappa, V domains shown, Humanized, human IgG4/kappa; also called huBSG11F2B7G5E8-V14) VH: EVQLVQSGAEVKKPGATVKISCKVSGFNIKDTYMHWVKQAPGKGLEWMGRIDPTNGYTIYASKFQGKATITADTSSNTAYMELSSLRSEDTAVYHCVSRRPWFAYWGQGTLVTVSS VL: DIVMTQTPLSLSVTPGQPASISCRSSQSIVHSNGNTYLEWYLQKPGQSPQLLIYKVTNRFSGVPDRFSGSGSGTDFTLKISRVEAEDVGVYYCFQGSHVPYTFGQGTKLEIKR", "pEC50": 9.63}
{"binder": "huB8G11F2B7G5E8-V2 (antibody, human IgG4 S228P, kappa, V domains shown, Humanized, human IgG4/kappa; also called huBSG11F2B7G5E8-V2) VH: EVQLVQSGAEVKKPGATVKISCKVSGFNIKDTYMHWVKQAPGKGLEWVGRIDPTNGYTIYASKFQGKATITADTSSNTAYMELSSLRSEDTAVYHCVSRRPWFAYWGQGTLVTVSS VL: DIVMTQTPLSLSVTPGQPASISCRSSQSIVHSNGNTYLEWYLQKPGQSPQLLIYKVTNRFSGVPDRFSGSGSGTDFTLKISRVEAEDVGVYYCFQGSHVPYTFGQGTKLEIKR", "pEC50": 9.56}
{"binder": "mouse antibody B8G11F2B7G5E8 (antibody, V domains shown, Mouse hybridoma mAb; also called Mouse B8G11F2B7G5E8; mAb B8G11F2B7G5E8) VH: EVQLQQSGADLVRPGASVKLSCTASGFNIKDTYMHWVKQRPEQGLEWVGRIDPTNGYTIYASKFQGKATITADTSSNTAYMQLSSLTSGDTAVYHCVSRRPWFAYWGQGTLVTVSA VL: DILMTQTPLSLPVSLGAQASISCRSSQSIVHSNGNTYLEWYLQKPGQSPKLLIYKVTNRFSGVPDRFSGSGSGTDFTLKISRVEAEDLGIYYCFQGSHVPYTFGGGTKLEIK", "pEC50": 9.67}
{"binder": "chimeric antibody B8G11F2B7G5E8 (antibody, human IgG4 S228P, kappa, V domains shown, Mouse variable domains on human IgG4/kappa; also called Chimeric B8G11F2B7G5E8; chB8G11F2B7G5E8) VH: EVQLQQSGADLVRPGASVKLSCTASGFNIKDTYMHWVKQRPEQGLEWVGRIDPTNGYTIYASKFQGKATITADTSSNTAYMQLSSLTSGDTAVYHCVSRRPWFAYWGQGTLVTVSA VL: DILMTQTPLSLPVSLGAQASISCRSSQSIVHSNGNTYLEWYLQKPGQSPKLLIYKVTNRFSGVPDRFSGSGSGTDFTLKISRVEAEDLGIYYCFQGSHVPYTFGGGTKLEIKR", "pEC50": 9.50}

Then this binder:
Query string: Specify measured pEC50 for huB8G11F2B7G5E8-V4 (antibody, human IgG4 S228P, kappa, V domains shown, Humanized, human IgG4/kappa; also called huBSG11F2B7G5E8-V4) VH: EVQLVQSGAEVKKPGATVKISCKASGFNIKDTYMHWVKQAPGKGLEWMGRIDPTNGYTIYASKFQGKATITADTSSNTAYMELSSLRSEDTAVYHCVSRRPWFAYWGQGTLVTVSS VL: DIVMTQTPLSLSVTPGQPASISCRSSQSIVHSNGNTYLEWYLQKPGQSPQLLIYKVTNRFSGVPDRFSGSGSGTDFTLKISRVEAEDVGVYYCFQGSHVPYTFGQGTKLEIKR .
Result string: 9.56
